Target: T1, recombinant human RANTES (huRANTES, Peprotech) (human, UniProt P13501 24-91)
T1 sequence: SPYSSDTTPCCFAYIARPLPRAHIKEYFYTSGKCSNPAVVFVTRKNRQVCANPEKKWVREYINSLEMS
Experiment: cell-based or functional assay
PROPERTY LABEL: Chemotaxis IC50 (nM); L1.2 cells expressing hCCR5, 1 nM huRANTES; scFv format
State the value, then name its unit.

Task: # Chemotaxis IC50 (nM); L1.2 cells expressing hCCR5, 1 nM huRANTES; scFv format lookup, item 4D8 scFv (scFv) QVQLVQSGAEVKKPGASVKVSCKVSGYTLNDFAMHWVRQAPGKGLEWMGGYVPEDGDTIYAQKFQGRVTMTEDTSTDTAYMELSSLRSEDTAVYYCATDPLYTPGLYVWGQGTTVTVSSSYVLTQPPSVSVAPGQTARITCGGNNIESKSVHWYQQKPGQAPVLVVYDDSDRPSGIPERFSGSNSGNTATLTISRVEAGDEADYYCQVWDSNTDHWVFGGGTKVTVL
Result: 0.08 nM

Task: # Chemotaxis IC50 (nM); L1.2 cells expressing hCCR5, 1 nM huRANTES; scFv format lookup, item 5E1 scFv (scFv) QVQLVQSGAEVKKPGASVKVSCKVSGYTLNDFAMHWVRQAPGKGLEWMGGYVPEDGDTIYAQKFQGRVTMTEDTSTDTAYMELSSLRSEDTAVYYCATDYLYIPSLSYWGQGTTVTVSSSYVLTQPPSVSVAPGQTARITCGGNNIESKSVHWYQQKPGQAPVLVVYDDSDRPSGIPERFSGSNSGNTATLTISRVEAGDEADYYCQVWDSNTDHWVFGGGTKVTVL
Result: 0.2 nM

Task: # Chemotaxis IC50 (nM); L1.2 cells expressing hCCR5, 1 nM huRANTES; scFv format lookup, item 3E7 scFv (scFv) QVQLVQSGAEVKKPGASVKVSCKVSGYTLNDFAMHWVRQAPGKGLEWMGGYVPEDGDTIYAQKFQGRVTMTEDTSTDTAYMELSSLRSEDTAVYYCATDPLYPPGLSPWGQGTTVTVSSSYVLTQPPSVSVAPGQTARITCGGNNIESKSVHWYQQKPGQAPVLVVYDDSDRPSGIPERFSGSNSGNTATLTISRVEAGDEADYYCQVWDSNTDHWVFGGGTKVTVL
Result: 0.47 nM
